Observed pIC50 for Histone deacetylase 2 (Homo sapiens, UniProt Q92769), reported per entry below.
Scale for pIC50: -log10 of concentration given in mol/L; no unit attached.

{"structure": "C#CCN(C)CCCOc1cc(NC(=O)CCCCCCCC(=O)NO)ccc1Cl", "measured_on": "Histone deacetylase 2 (Homo sapiens, UniProt Q92769)", "quantitative_readout": 5.38}
{"structure": "C#CCN(C)CCCOc1ccc(NC(=O)CCCCCCC(=O)NO)cc1Cl", "measured_on": "Histone deacetylase 2 (Homo sapiens, UniProt Q92769)", "quantitative_readout": 6.34}
{"structure": "C#CCN(C)CCCOc1cc(NC(=O)CCCCCCCCC(=O)NO)ccc1Cl", "measured_on": "Histone deacetylase 2 (Homo sapiens, UniProt Q92769)", "quantitative_readout": 5.44}

Note to self: pIC50 of C#CCN(C)CCCOc1cc(NCc2ccc(/C=C/C(=O)NO)cc2)ccc1Cl with Histone deacetylase 2 (Homo sapiens, UniProt Q92769) was 5.94

Note to self: pIC50 of C#CCN(C)CCCOc1cc(NCc2ccc(C(=O)NO)cc2)ccc1Cl with Histone deacetylase 2 (Homo sapiens, UniProt Q92769) was 5.32

Note to self: pIC50 of C#CCN(C)CCCOc1cccc(NC(=O)CCCCCCC(=O)NO)c1Cl with Histone deacetylase 2 (Homo sapiens, UniProt Q92769) was 5.49

The values you see were collected from ChEMBL document CHEMBL5154693.
